Would you kindly list IC50 for each of these molecules?
Biological target: factor Xa (Homo sapiens, UniProt P00742)
Sequence (P00742 235-488 limits assumed): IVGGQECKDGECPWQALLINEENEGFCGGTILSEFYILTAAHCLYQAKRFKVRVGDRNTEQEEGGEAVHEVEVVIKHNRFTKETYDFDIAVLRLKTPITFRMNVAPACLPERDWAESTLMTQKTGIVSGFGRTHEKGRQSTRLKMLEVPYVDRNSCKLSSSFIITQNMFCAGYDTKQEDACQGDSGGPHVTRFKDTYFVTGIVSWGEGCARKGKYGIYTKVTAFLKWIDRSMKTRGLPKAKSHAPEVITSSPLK
Sequence (P00742 41-179 limits assumed): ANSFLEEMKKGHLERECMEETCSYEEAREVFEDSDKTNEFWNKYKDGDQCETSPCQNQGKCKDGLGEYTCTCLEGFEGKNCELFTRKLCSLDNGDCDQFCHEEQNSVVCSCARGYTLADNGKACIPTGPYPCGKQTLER
Square brackets hold non-standard residues; d marks the D form. Peptide text beside a SMILES is read from it. * marks the point of attachment. dCit = NC(=O)NCCC[C@@H](N)C(=O)O; Boc = CC(C)(C)OC(=O)*
Give bare numbers, in µM.

molecule=CN(C)C(=NCCCC[C@@H](NC(=O)OC(C)(C)C)C(=O)NCC(=O)N[C@H](C=O)CCCNC(=N)N)N(C)C unit_string=µM readout_number=5

Now take the following molecule into account.
## Task Give the measured IC50 of CC(C)(C)OC(=O)N[C@H](CCCNC(N)=O)C(=O)NCC(=O)N[C@H](C=O)CCCNC(=N)N [Boc-D-Cit-Gly-Arg-H] (Boc-[dCit]-Gly-Arg-aldehyde) .
## Result 3

Recorded values, source patent US6245743A.
